- measurement target: T1, His-tagged human CD38 (ACRO Biosystems CD8-H5224) (human, UniProt P28907 43-300)
- T1 construct: bought protein; used for ELISA coating and as SPR analyte; not shown: His tag
- assay notes: SPR (second run), His-tagged CD38
measured property: Kd (nM)
One number for each entry, in nM.

INSERT INTO measurements (binder, unit_tag, reported_measurement) VALUES
  ('40769p1.1.B12 (scFv, V domains shown) VH: EVQLLESGGGLIQPGGSLRLSCTASGFDFSSYGMHWVRQAPGKGLEWVGIISDSGGTTYYADSVKGRFTISRDNSKNTMYLQMNSLRAEDTALYYCASYIMDVWGQGITVTVSS VL: QSVLTQPPSASGTPGQRVTISCSGSSSNVGGNSVYWYQQLPGTAPKLLFYGNHRRPSGVPDRFSGSKSGTSASLAISGLQSEDEADYYCAVWDDSLNAWVFGGGTKLTVL', 'nM', 91),
  ('40596p1.D2 (scFv, V domains shown) VH: EVQLLESGGGLVQPGGSLRLSCAASGFDFSKNAMSWVRQAPGKGLEYVAGSGWSGSFIFYADSVKGRSTVSRDNSENTLYLQMSSLRAEDTAVYYCAKNPGFGEMDVWGQGTTVTVSS VL: ELVLTQSPGSLFLSPGERATLTCRASQTIGSNLAWYQQKFGQAPRLLIYGASTRAADIPDRFSGSGSGTEFTLTISSLQSEDFAVYYCQQYNSWPPLTFGGGTKVEIK', 'nM', 54.7),
  ('40769p1.1.A2 (scFv, V domains shown) VH: EVQLLESGGGLVQPGGSLRLSCAASGFLFDDYGMSWVRQAPGKGLEWVSAISYKGGSTYYADSVKGRFTISRDNSKNTLYLQMSSLRAEDTAVYYCAKDHKWNYYGMDVWGQGTTVTVSS VL: QSVLTQPPSASGTPGQRVTISCSGSTSNIGNDNYVSWYQQLPGTAPRLLIYKDDQRPSGVPDRFSGSKSGTSASLAISGLQSEDEADYYCGTWDDRLNAWVFGGGTKLTVL', 'nM', 0.82),
  ('40769p1.1.B10 (scFv, V domains shown) VH: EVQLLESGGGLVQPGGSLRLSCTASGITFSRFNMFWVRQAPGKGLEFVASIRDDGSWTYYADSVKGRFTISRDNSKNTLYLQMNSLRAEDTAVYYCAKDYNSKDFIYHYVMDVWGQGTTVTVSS VL: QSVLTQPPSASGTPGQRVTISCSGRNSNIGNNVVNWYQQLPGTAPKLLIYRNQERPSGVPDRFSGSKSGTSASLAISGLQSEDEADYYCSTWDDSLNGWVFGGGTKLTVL', 'nM', 29.6),
  ('40769p1.1.G12 (scFv, V domains shown) VH: EVQLLESGGGLVQPGGSLRLSCAASGFTFDDYVMSWVRQAPGKGLEWVSEISESDGSNKYYADSVKGRFIISRDNSKNTLYLQMNSLRAEDTAVYYCARLEPEKYYGMDVWGQGTTVTVSS VL: QSVLTQPPSASGTPGQRVTISCSGSNSNIGNNLVSWYQQLPGTAPKLLIYRHDHRPSGVPDRFSGSKSGTSASLAISGLQSEDEADYYCATWDDSLNGRAFGGGTKLTVL', 'nM', 2.81);

Then this binder:
Lab book: Kd of 40769p1.2.E3 (scFv, V domains shown) VH: EVQLLESGGDLVQPGGSLRLSCGASGFTFSDHYMSWVRQAPGKGLEWVADISARGSNTWYADSVKGRFTISRDNSENTLYLQMNSLRAEDTAVYYCAKNWNYNYGMDVWGQGTTVTVSS VL: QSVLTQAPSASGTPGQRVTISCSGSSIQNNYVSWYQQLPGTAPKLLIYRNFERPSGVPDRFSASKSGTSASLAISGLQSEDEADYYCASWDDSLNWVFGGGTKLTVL noted as 6.74
